Hey, just so you know, these numbers are from ChEMBL document CHEMBL1148652.

study_system: Transient receptor potential cation channel subfamily V member 1 (Rattus norvegicus)
test_name: Antagonist activity against acid-induced 45calcium ion uptake in CHO cells expressing rat TRPV1 at pH5
Assay type: functional, cell-based
// returns -1 unless IC50 is strictly below 0.07 µM, in which case 1

INPUT: Please check: IC50 for `C[C@H]1CN(c2ncccc2Br)CCN1c1nc2c(-c3cc(F)c(F)c(F)c3)cc(C(F)(F)F)cc2[nH]1` , strictly under 0.07 µM or not?
OUTPUT: -1

INPUT: Please check: IC50 for `CC(=O)c1cnc(N2CCN(c3nc4cc(C(F)(F)F)ccc4[nH]3)CC2)c(Cl)c1` , strictly under 0.07 µM or not?
OUTPUT: -1

INPUT: Please check: IC50 for `CCC[C@@H]1CN(c2ncccc2C(F)(F)F)CCN1c1nc2cc(C(F)(F)F)ccc2[nH]1` , strictly under 0.07 µM or not?
OUTPUT: -1

INPUT: Please check: IC50 for `FC(F)(F)c1ccc(-c2cc(C(F)(F)F)cc3[nH]c(N4CCN(c5ncccc5C(F)(F)F)CC4)nc23)cc1` , strictly under 0.07 µM or not?
OUTPUT: 1

INPUT: Please check: IC50 for `FC(F)(F)c1cc(Br)c2nc(N3CCN(c4ncccc4C(F)(F)F)CC3)[nH]c2c1` , strictly under 0.07 µM or not?
OUTPUT: -1

INPUT: Please check: IC50 for `FC(F)(F)c1cc(-c2nccs2)c2nc(N3CCN(c4ncccc4C(F)(F)F)CC3)[nH]c2c1` , strictly under 0.07 µM or not?
OUTPUT: -1

INPUT: Please check: IC50 for `C[C@@H]1CN(c2ncc(Br)cc2Cl)CCN1c1nc2c(-c3cc(F)c(F)c(F)c3)cc(C(F)(F)F)cc2[nH]1` , strictly under 0.07 µM or not?
OUTPUT: 1

INPUT: Please check: IC50 for `Fc1cc(CNc2cc(C(F)(F)F)cc3[nH]c(N4CCN(c5ncccc5C(F)(F)F)CC4)nc23)cc(F)c1F` , strictly under 0.07 µM or not?
OUTPUT: -1

INPUT: Please check: IC50 for `FC(F)(F)Oc1cccc(-c2cc(C(F)(F)F)cc3[nH]c(N4CCN(c5ncccc5C(F)(F)F)CC4)nc23)c1` , strictly under 0.07 µM or not?
OUTPUT: 1

* * *

Field: IC50. Provide a value for each of the compounds that follow.
study_system: Transient receptor potential cation channel subfamily V member 1 (Rattus norvegicus)
test_name: Antagonist activity against capsaicin-induced 45calcium ion uptake in CHO cells expressing rat TRPV1
Assay type: functional, cell-based
State just the number; it will be interpreted in µM.

INPUT: I would be grateful if you could share the reported IC50 for `FC(F)(F)c1ccc2[nH]c(N3CCN(c4ccncc4C(F)(F)F)CC3)nc2c1` .
OUTPUT: 2.38

INPUT: I would be grateful if you could share the reported IC50 for `C[C@@H]1CN(c2ncc(CO)cc2C(F)(F)F)CCN1c1nc2c(-c3cc(F)c(F)c(F)c3)cc(C(F)(F)F)cc2[nH]1` .
OUTPUT: 0.0014

INPUT: I would be grateful if you could share the reported IC50 for `FC(F)(F)c1ccc(-c2cc3[nH]c(N4CCN(c5ncccc5C(F)(F)F)CC4)nc3cc2C(F)(F)F)cc1` .
OUTPUT: 8.24

INPUT: I would be grateful if you could share the reported IC50 for `FC(F)(F)c1cc(/C=C/c2ccccc2)c2[nH]c(N3CCN(c4ncccc4C(F)(F)F)CC3)nc2c1` .
OUTPUT: 0.185

* * *

Field: IC50. Provide a value for each of the molecules that follow.
study_system: Transient receptor potential cation channel subfamily V member 1 (Rattus norvegicus, UniProt O35433)
Sequence (O35433 whole entry): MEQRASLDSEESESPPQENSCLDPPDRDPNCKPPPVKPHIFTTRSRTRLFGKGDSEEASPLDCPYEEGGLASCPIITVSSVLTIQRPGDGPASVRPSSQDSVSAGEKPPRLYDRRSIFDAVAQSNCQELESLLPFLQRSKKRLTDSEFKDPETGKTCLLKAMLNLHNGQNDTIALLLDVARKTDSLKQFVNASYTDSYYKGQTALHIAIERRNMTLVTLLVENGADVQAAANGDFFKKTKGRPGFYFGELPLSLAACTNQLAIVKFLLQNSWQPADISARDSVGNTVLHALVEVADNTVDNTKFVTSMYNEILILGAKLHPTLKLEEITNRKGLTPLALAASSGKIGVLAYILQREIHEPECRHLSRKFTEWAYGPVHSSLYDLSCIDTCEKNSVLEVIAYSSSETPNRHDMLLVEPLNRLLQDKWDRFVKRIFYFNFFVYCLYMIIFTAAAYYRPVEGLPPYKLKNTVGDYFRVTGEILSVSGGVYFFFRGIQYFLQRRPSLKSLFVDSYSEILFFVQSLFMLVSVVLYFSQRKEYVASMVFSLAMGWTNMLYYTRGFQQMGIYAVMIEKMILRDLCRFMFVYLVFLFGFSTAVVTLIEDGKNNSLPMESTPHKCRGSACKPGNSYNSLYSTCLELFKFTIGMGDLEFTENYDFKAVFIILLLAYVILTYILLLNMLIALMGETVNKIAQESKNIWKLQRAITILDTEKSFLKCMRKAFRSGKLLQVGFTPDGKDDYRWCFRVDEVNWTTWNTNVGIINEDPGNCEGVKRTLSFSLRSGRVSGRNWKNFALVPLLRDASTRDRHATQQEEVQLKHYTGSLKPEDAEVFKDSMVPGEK
test_name: Antagonist activity against acid-induced 45calcium ion uptake in CHO cells expressing rat TRPV1 at pH5
Format: functional, cell-based
State just the number; it will be interpreted in nM.

INPUT: I would be grateful if you could share the reported IC50 for `COc1ccc(-c2cc(C(F)(F)F)cc3[nH]c(N4CCN(c5ncccc5C(F)(F)F)CC4)nc23)cn1` .
OUTPUT: 99

INPUT: I would be grateful if you could share the reported IC50 for `OCc1cnc(N2CCN(c3nc4ccc(C(F)(F)F)cc4[nH]3)CC2)c(Cl)c1` .
OUTPUT: 98

INPUT: I would be grateful if you could share the reported IC50 for `FC(F)(F)c1cc2[nH]c(N3CCN(c4ncccc4C(F)(F)F)CC3)nc2cc1Br` .
OUTPUT: 43

INPUT: I would be grateful if you could share the reported IC50 for `C[C@@H]1CN(c2ncc(CO)cc2Cl)CCN1c1nc2cc(C(F)(F)F)cc(NC(=O)OC(C)(C)C)c2[nH]1` .
OUTPUT: 1.1

INPUT: I would be grateful if you could share the reported IC50 for `COC(=O)c1cnc(N2CCN(c3nc4c(-c5cc(F)c(F)c(F)c5)cc(C(F)(F)F)cc4[nH]3)[C@H](C)C2)c(Cl)c1` .
OUTPUT: 0.3

INPUT: I would be grateful if you could share the reported IC50 for `FC(F)(F)c1cc(-c2ccccc2)c2nc(N3CCN(c4ncccc4C(F)(F)F)CC3)[nH]c2c1` .
OUTPUT: 68

INPUT: I would be grateful if you could share the reported IC50 for `C[C@@H]1CN(c2ncc(CO)cc2Cl)CCN1c1nc2c(NCc3ccccc3)cc(C(F)(F)F)cc2[nH]1` .
OUTPUT: 6.7

INPUT: I would be grateful if you could share the reported IC50 for `FC(F)(F)c1ccc2nc(N3CCN(c4c(Cl)cncc4Cl)CC3)[nH]c2c1` .
OUTPUT: 1990

INPUT: I would be grateful if you could share the reported IC50 for `FC(F)(F)c1ccc2[nH]c(N3CCN(c4ncccc4Cl)CC3)nc2c1` .
OUTPUT: 705

INPUT: I would be grateful if you could share the reported IC50 for `C[C@@H]1CN(c2ncc(N)cc2Cl)CCN1c1nc2c(-c3ccc(F)cc3)cc(C(F)(F)F)cc2[nH]1` .
OUTPUT: 33

INPUT: I would be grateful if you could share the reported IC50 for `NC(=O)c1cnc(N2CCN(c3nc4cc(C(F)(F)F)ccc4[nH]3)CC2)c(Cl)c1` .
OUTPUT: 1000

* * *

study_system: UniProt:O35433
test_name: Antagonist activity against acid-induced 45calcium ion uptake in CHO cells expressing rat TRPV1 at pH5
Format: functional, cell-based
property: IC50

INPUT: I would be grateful if you could share the reported IC50 for `CC[C@@H]1CN(c2ncccc2C(F)(F)F)CCN1c1nc2cc(C(F)(F)F)ccc2[nH]1` .
OUTPUT: > 4000 nM

INPUT: I would be grateful if you could share the reported IC50 for `C[C@@H]1CN(c2ncccc2Br)CCN1c1nc2c(-c3cc(F)c(F)c(F)c3)cc(C(F)(F)F)cc2[nH]1` .
OUTPUT: 2.6 nM

INPUT: I would be grateful if you could share the reported IC50 for FC(F)(F)c1cc(C2CCC(C(F)(F)F)CC2)c2nc(N3CCN(c4ncccc4C(F)(F)F)CC3)[nH]c2c1 (centres undefined) .
OUTPUT: 9 nM

INPUT: I would be grateful if you could share the reported IC50 for `Fc1ccc(-c2ccc3[nH]c(N4CCN(c5ncccc5C(F)(F)F)CC4)nc3c2)cc1F` .
OUTPUT: 351 nM

* * *

study_system: Transient receptor potential cation channel subfamily V member 1 (Rattus norvegicus)
test_name: Antagonist activity against capsaicin-induced 45calcium ion uptake in CHO cells expressing rat TRPV1
Type: functional, cell-based
Field: IC50. Provide a value for each of the compounds that follow.
State just the number; it will be interpreted in nM.

INPUT: I would be grateful if you could share the reported IC50 for `C[C@@H]1CN(c2ncc([C@@H](C)O)cc2Cl)CCN1c1nc2c(-c3cc(F)c(F)c(F)c3)cc(C(F)(F)F)cc2[nH]1` .
OUTPUT: 0.6

INPUT: I would be grateful if you could share the reported IC50 for `CC(C)(C)c1ccc2[nH]c(N3CCN(c4ncccc4C(F)(F)F)CC3)nc2c1` .
OUTPUT: 183

INPUT: I would be grateful if you could share the reported IC50 for `COc1ccc(-c2cc(C(F)(F)F)cc3[nH]c(N4CCN(c5ncccc5C(F)(F)F)CC4)nc23)cn1` .
OUTPUT: 111

INPUT: I would be grateful if you could share the reported IC50 for `FC(F)(F)c1cc(-c2cnccn2)c2nc(N3CCN(c4ncccc4C(F)(F)F)CC3)[nH]c2c1` .
OUTPUT: 129

* * *

study_system: UniProtKB O35433
test_name: Antagonist activity against acid-induced 45calcium ion uptake in CHO cells expressing rat TRPV1 at pH5
Type: functional, cell-based
pIC50: −log10 of the molar value.
property: pIC50

INPUT: Tell me reported pIC50 for `FC(F)(F)c1ccc2[nH]c(N3CCN(c4ncncc4Cl)CC3)nc2c1` , tested with UniProtKB O35433.
OUTPUT: < 4.40

INPUT: Tell me reported pIC50 for `N#Cc1ccc2[nH]c(N3CCN(c4ncccc4C(F)(F)F)CC3)nc2c1` , tested with UniProtKB O35433.
OUTPUT: < 5.40

INPUT: Tell me reported pIC50 for `Cc1ccc2[nH]c(N3CCN(c4ncccc4C(F)(F)F)CC3)nc2c1` , tested with UniProtKB O35433.
OUTPUT: < 5.40
